Provenance of the data: the EternaBench riboswitch data

Below, each entry is listed with its recorded apparent Kd.
- Test system: MS2 coat protein
- test_summary: apparent Kd, MS2 coat protein; higher = weaker binding; RNA-MaP array
- details: ligand present: flavin mononucleotide; designed as: OFF switch for flavin mononucleotide
Answer with a number only, understood to be in nM.

Solved cases (10 shown):
[[record]]
sequence_content = "UAAGCACAUCAGAAGGCGCAUUAGUUGAACUUGCGAGGAUAUGAUCUGUCCUCAUCAACAUGAGGAUCACCCAUGUGUCAGCUC"
assay_readout = "apparent Kd"
measured = 140

[[record]]
sequence_content = "UAGUCAUCGGCAGGAUAUUCGCUAGUAGACUAUGAAGAAGGGCCACGUACCUCACAAACAUGAGGAUCACCCAUGUAUCUGGAC"
assay_readout = "apparent Kd"
measured = 29

[[record]]
sequence_content = "UAAGAGUCGGCAGGAUAUGUCCCUUGAGCGCAGACAGAAGGGCCACUAUCUUUCACAUGAGGAUCACCCAUGUCCUCCCUGGAG"
assay_readout = "apparent Kd"
measured = 61.6

[[record]]
sequence_content = "GUCUCUCGCUUAGGAUAUCAGCACGAUUAUCCCUGAGAAGGAAGUGACAGACAUGAGGAUCACCCAUGUAUCCAAGGUUCGAAG"
assay_readout = "apparent Kd"
measured = 15

[[record]]
sequence_content = "AGAUCCCUGGUGAGGAUAUGUGAGACAUUCCCAGGACAGAAGGCACAUGAGGAUCACCCAUGUGUUGGGUAAUU"
assay_readout = "apparent Kd"
measured = 6.65

[[record]]
sequence_content = "AUAUUGUUUAUAGGAUAUUACACUAAGGUGACAUGAGGAUCACCCAUGUCCUCAACCACACGACUUAAGAAGGAUAAACGUUGG"
assay_readout = "apparent Kd"
measured = 54.9

[[record]]
sequence_content = "GUAACGUGCAAAGGAUAUAUACAUGAGGAUCACCCAUGUCGGAAUGAGAUCAAGGUCGCUCGCCUAUAGAAGGUUGGCGCUACU"
assay_readout = "apparent Kd"
measured = 43.9

[[record]]
sequence_content = "GUCUCUAGGACAGGAUAUCUCCUCAGGGAUGCGAGAGAAGGGUCUAUUGACAUGAGGAUCACCCAUGUGGAUCAUGUCUAUGAU"
assay_readout = "apparent Kd"
measured = 352

[[record]]
sequence_content = "GCAGGAAAGCAGAAGGACACCACAUGAGGAUCACCCAUGUCGGCGCUGACUUUGAUCUUGAGGAUGUAGGAUAUGCGUUUCGGA"
assay_readout = "apparent Kd"
measured = 17.4

[[record]]
sequence_content = "CCAUUGUCAGGAUAUUGUGGUUUAGCGUCGAAAGGGCUUAGCAAGAAGGGACAUGAGGAUCACCCAUGUGUAGU"
assay_readout = "apparent Kd"
measured = 146


For the sequence GUUCAACGGUGAGGAUAUUGCAGUACGUACGCACAAGAAGGCACUCCAUAGCACAGGGUGCACAUGAGGAUCACCCAUGUGGUC , what apparent Kd is on record?
224

For the sequence AGUCGUACCAAGAAGGUACCCGGCUAAUGGUGGUAAGGAUAUUGUACGAACCCUAACAUGAGGAUCACCCAUGUCCACAGUGGG , what apparent Kd is on record?
33

For the sequence GCCAAGGUAACAGGAUAUUCUAAAGACGUGAGAUACUAAAUAAACAUGAGGAUCACCCAUGUGAAGAAGAAGGGUUAAGAGUAC , what apparent Kd is on record?
12.5

For the sequence CCUCACUUGAAGAAGGACAGCUUCGGUCACAUCGGAACAUGAGGAUCACCCAUGUGACGCGUGGUGUAGGAUAUUCGUAAGGCA , what apparent Kd is on record?
147

For the sequence CAAUACGAUGUCAGGAUAUUAUUUCAAGUAGACGGUAAGAAGGGACAUGAGGAUCACCCAUGUACGGAAUACGC , what apparent Kd is on record?
6.32

For the sequence UGUCGUAAAGGAUAUACAUGAGGAUCACCCAUGUCGGCCGUUAGGCCGUAAGGUGUGCGUAGAAGGUUACAUUG , what apparent Kd is on record?
149

For the sequence GGAUUCAGAGGAUAUACAUGAGGAUCACCCAUGUCAUUCAGCCAAGAUAUGUGUUUCAGUAGAAGGCUGAUCGG , what apparent Kd is on record?
18

---

Below, each entry is listed with its recorded apparent Kd.
- Tested on: MS2 coat protein
- test_summary: apparent Kd, MS2 coat protein; higher = weaker binding; RNA-MaP array; tryptophan 2.4 mM where present
- details: designed as: ON switch for tryptophan; no ligand
Answer with a number only, understood to be in nM.

[[record]]
sequence_content = "UAAACUACACAUGAGGAUCACCCAUGUGGCCGAGGACCGGUACGGCCGCCACUCGUGUGUUAAUAAAAGAACCGCAAAGUUCUUU"
unit_tag = "nM"
measured = 277

[[record]]
sequence_content = "AAAUUAUAGGCGGCCGCCACUAGAGUUAGGCUUAUGUACUGGGUAACAUGAGGAUCACCCAUGUAUAGGACCGGGCCAUAAUAAA"
unit_tag = "nM"
measured = 53.5

[[record]]
sequence_content = "UGUCGGCGAAAGUUGGCGUGUCUUGCUGGUCGAGGACCGGUACGGCCGCCACUCGAUCCUUCGCACAUGAGGAUCACCCAUGUUG"
unit_tag = "nM"
measured = 25.5

[[record]]
sequence_content = "UAUCUACAUAUAUAGGUUAUUCGAUUAUUUCGAGGACCGGUACGGCCGCCACUCGUUAACAUAUACAUGAGGAUCACCCAUGUUA"
unit_tag = "nM"
measured = 15.4

[[record]]
sequence_content = "AUAAUAAUACAUGAGGAUCACCCAUGUAUGCGAGGACCGGUACGGCCGCCACUCGACCUCAUGCAUACAUGAGGAUCACCCAUGU"
unit_tag = "nM"
measured = 32.5


For the sequence GCUAGGUCAUCGGCCGCCACUAACGACGGUUCCAACAUGAGGAUCACCCAUGUGCCACAUGCGCAUAGGACCGGGAUGACCUAGC , what apparent Kd is on record?
33

For the sequence GGUUACUCUACGGCCGCCACUGGGCAUGUAAAUAACAUGAGGAUCACCCAUGUGGAAUAAAAUUACAGGACCGGGUAGUGUAACC , what apparent Kd is on record?
254

For the sequence GGAUUACGAAAGUAGUCCAUCAAGUUCGAGCGAGGACCGGUACGGCCGCCACUCGAACAUGAGGAUCACCCAUGUAGCGAAAGCU , what apparent Kd is on record?
284

For the sequence GGGUGGUAGGCGGCCGCCACUGAUUUUCAUAUAUAUAUAACAUGAGGAUCACCCAUGUAGAUAUGCAGGACCGGGCCUGUUGUUU , what apparent Kd is on record?
36.5

For the sequence AUGGUCGACGAUCUGCGAAAAGCAGAUCGACGAGGACCGGUACGGCCGCCACUCGUGUUCAUUAAACAUGAGGAUCACCCAUGUA , what apparent Kd is on record?
48.8

For the sequence UAAACUACACAUGAGGAUCACCCAUGUGGCCGAGGACCGGUACGGCCGCCACUCGUGUGUUAAUAAAAGAACUGCAAAGUUCCUU , what apparent Kd is on record?
295

For the sequence CCUCAAUAGACGGCCGCCACUGAAACAUGCGGAUACAUGAGGAUCACCCAUGUGGGUGUGUUACGCAGGACCGGGUCAAGACCCG , what apparent Kd is on record?
345

For the sequence CGAGUAAGAACAAUCGAAUAACGGUUUUCGCGAGGACCGGUACGGCCGCCACUCGUGUGAUAUAACACAUGAGGAUCACCCAUGU , what apparent Kd is on record?
26.3

For the sequence CUAGAUGGAAACGUCUGGACGCACAAGCGACGAGGACCGGUACGGCCGCCACUCGAAGAGUGGUGGACAUGAGGAUCACCCAUGU , what apparent Kd is on record?
53.8

For the sequence ACAUGAGGAUCACCCAUGUACAUCACCCGACGAGGACCGGUACGGCCGCCACUCGGGUAUAUAUAUACAUCGGGUGAUUUUACGU , what apparent Kd is on record?
18.5

For the sequence AGAAUAUAGUCGGCCGCCACUCUUCAUACAUGAGGAUCACCCAUGUUUAAUUCUUGGAUAUUCUUGAGGACCGGGACAUAGGCAU , what apparent Kd is on record?
18.4

For the sequence AUAUAUACAUGAGGAUCACCCAUGUUAUUUCGAGGACCGGUACGGCCGCCACUCGAUAGAGUAGAAGUAACAUGUGUUAGUUGAU , what apparent Kd is on record?
22.3

For the sequence GCAUCCUAGUCGGCCGCCACUGGUACGAACACCUUCACCCGUGUGCACAUGAGGAUCACCCAUGUCAGGACCGGGACUAGGAUGC , what apparent Kd is on record?
9.36

For the sequence UUUAAAUAGACGGCCGCCACUGGAAUUAAUACAUGAGGAUCACCCAUGUAGAGAGAAUAAUAAUACAGGACCGGGUCUUCAUGAA , what apparent Kd is on record?
31.4
